Record form. Attribute: melting point. Fill in for each entry.

Noted for CCOP(=O)(/C=C/c1cn(-c2ccccc2)nc1OCc1ccc(OCc2nc(-c3cccc(C#N)c3)oc2C)c(OC)c1)OCC : its melting point reads 147 to 148 °C

// melting point value for CCOC(=O)c1cn(-c2ccccc2)nc1OCc1ccc(OCc2nc(-c3ccccc3)oc2C)c(OC)c1 : 160 to 161 °C

GET /value?item= CCOC(=O)c1cn(Cc2ccccc2)nc1OCc1ccc(OCc2nc(-c3ccccc3)oc2C)c(OC)c1 &field=melting point returns 154 to 155 °C

CCOC(=O)Cc1ccc(-c2nc(COc3ccc(COc4nn(-c5ccccc5)cc4/C=C/c4nc(N5CCN(C(=O)OC(C)(C)C)CC5)sc4C)cc3OC)c(C)o2)cc1 has a reported melting point of 112 to 114 °C

melting point for CCOC(=O)/C=C/c1nc(COc2ccc(COc3nn(-c4ccccc4)cc3/C=C\c3csc(CC)n3)cc2OC)c(C)o1 [Example 322 (Z form)] is 119 to 120 °C

Reported melting point ( COc1cc(COc2nn(-c3ccccc3)cc2/C=C/C(=O)NNC(C)=O)ccc1OCc1nc(-c2ccco2)oc1C ) = 221 to 222 °C

melting point for COC(=O)c1cc(-c2nc(COc3ccc(COc4nn(-c5ccccc5)cc4C=O)cc3OC)c(C)o2)ccc1OS(C)(=O)=O is 136 to 137 °C

* * *

Where a name gives a salt, the structure may show the parent alone.
measurement.type: melting point

Recorded result, CCOP(=O)(/C=C/c1cn(-c2ccccc2)nc1OCc1ccc(OCc2nc(N3CCOCC3)sc2C)c(OC)c1)OCC , melting point: 88 to 90 °C

Lab note: CCOC(=O)/C=C/c1cn(-c2ccccc2)nc1OCc1ccc(OCc2nc(-c3ccccc3)oc2C)c(OC)c1 gave melting point of 194 to 195 °C

Sample CCCc1noc(/C=C/c2cn(-c3ccccc3)nc2OCc2ccc(OCc3nc(-c4ccco4)oc3C)c(OC)c2)n1 ; melting point observed: 192 to 193 °C

// melting point value for COc1cc(COc2nn(-c3ccccc3)cc2/C=C/c2nc(C)cs2)ccc1OCc1nc(-c2ccco2)oc1C : 130 to 131 °C

// melting point value for CCc1nc(/C=C/c2cn(-c3ccccc3)nc2OCc2ccc(OCc3nc(-c4cccc(C(=O)OC)c4)oc3C)c(OC)c2)cs1 [Example 225 (E form)] : 132 to 133 °C

# compound CCOC(=O)c1cn(Cc2cccnc2)nc1OCc1ccc(OCc2nc(-c3ccco3)oc2C)c(OC)c1 ; its melting point = 131 to 132 °C

Looking up COc1cc(COc2nn(-c3ccccc3)cc2/C=C/c2cncn2C)ccc1OCc1nc(-c2ccco2)oc1C , I see its melting point listed as 144 to 145 °C

Per the records, this compound ( CCOC(=O)/C=C/c1cn(-c2ccc(C(F)(F)F)cc2)nc1OCc1ccc(OCc2nc(-c3ccccc3)oc2C)c(OC)c1 ) has melting point equal to 205 to 206 °C

The compound COc1cc(COc2nn(-c3ccccc3)cc2C=O)ccc1OCc1nc(-c2cccc(OS(C)(=O)=O)c2)oc1C (as salt: methanesulfonate) showed melting point equal to 146 to 148 °C

Sure, the documented melting point for CCOC(=O)Cc1ccc(-c2nc(COc3ccc(COc4nn(-c5ccccc5)cc4/C=C/c4nc(N5CCCCC5)sc4C)cc3OC)c(C)o2)cc1 is 131 to 132 °C

# melting point of CCCc1nnc(/C=C/c2cn(-c3ccccc3)nc2OCc2ccc(OCc3nc(-c4ccco4)oc3C)c(OC)c2)o1 [Example 115] = 172 to 173 °C

get_value(item= CCOP(=O)(/C=C/c1cn(-c2ccccc2)nc1OCc1ccc(OCc2nc(-c3ccc(C)c(C(=O)O)c3)oc2CC)c(OC)c1)OCC , readout=melting point) returns 165 to 166 °C

Record COc1cc(CC(=O)Nc2nn(-c3ccccc3)cc2C=O)ccc1OCc1nc(-c2ccco2)oc1C , field melting point: 190 to 191 °C

Measured melting point of CCOP(=O)(/C=C/c1cn(-c2ccccc2)nc1OCc1ccc(OCc2nc(-c3ccc(C(=O)O)cc3)oc2C)c(OC)c1)OCC : 194 to 195 °C

* * *

measurement.type: melting point

Entry COc1cc(COc2nn(C)cc2C(C)=O)ccc1OCc1nc(-c2ccccc2)oc1C , melting point reported as 170 to 171 °C

Record CCOP(=O)(/C=C/c1nc(-c2ccccc2)oc1COc1ccc(OCc2nc(-c3ccccc3)oc2C)cc1)OCC . Reported melting point: 124 to 125 °C

# melting point (compound: CCc1nc(/C=C/c2cn(-c3ccccc3)nc2OCc2ccc(OCc3nc(-c4cccc(-c5noc(=O)[nH]5)c4)oc3C)c(OC)c2)cs1 ) is 139 to 140 °C

Memo: CCOC(=O)c1ccc(-c2nc(COc3ccc(COc4nn(-c5ccccc5)cc4/C=C/c4csc(CC)n4)cc3OC)c(C)o2)o1 [Example 244 (E form)] , reported melting point: 150 to 151 °C

Measured melting point, CCOP(=O)(/C=C/c1cn(-c2ccccc2)nc1OCc1ccc(OCc2nc(-c3ccc(C(=O)O)s3)oc2C)c(OC)c1)OCC : 165 to 166 °C

Memo: COc1cc(C(=O)Nc2nn(-c3ccccc3)cc2C=O)ccc1OCc1nc(-c2ccco2)oc1C , reported melting point: 212 to 213 °C

Per the records, this compound ( COc1cc(COc2nn(-c3ccccc3)cc2/C=C\c2cscn2)ccc1OCc1nc(-c2ccco2)oc1C [Example 111 (Z form)] ) has melting point equal to 137 to 138 °C

* * *

Record form. Attribute: melting point. Fill in for each entry.

Record CCOc1cc(COc2nn(-c3ccccc3)cc2C=O)ccc1OCc1nc(-c2ccco2)oc1C [Example 154] , field melting point: 149 to 150 °C

Note to self: melting point recorded for CCc1nc(/C=C/c2cn(-c3ccccc3)nc2OCc2ccc(OCc3nc(-c4ccc(C(=O)O)s4)oc3C)c(OC)c2)cs1 [Example 331] was 150 to 151 °C

# molecule COC(=O)c1ccc(-c2nc(COc3ccc(COc4nn(-c5ccccc5)cc4C=O)cc3OC)c(C)o2)cc1 [Example 209] ; its melting point = 190 to 191 °C

Sure, the documented melting point for COc1cc(COc2nn(-c3ccccc3)cc2/C=C2\SC(=O)NC2=O)ccc1OCc1nc(-c2ccco2)oc1C [Example 262] is 252 to 253 °C

Item: Cc1oc(-c2ccco2)nc1COc1ccc(COc2nn(-c3ccccc3)cc2C#N)cc1 [Example 89] | melting point: 158 to 159 °C

The recorded melting point for entry CCOC(=O)c1cn(Cc2ccccc2)nc1OCc1ccc(OCc2nc(-c3ccco3)oc2C)c(OCc2ccccc2)c1 [Example 48] equals 127 to 128 °C

response.value for CCOC(=O)c1cn(Cc2ccccc2)nc1OCc1ccc(OCc2nc(-c3ccco3)oc2C)c(OC)c1 [Example 12] (field: melting point) = 117 to 118 °C

Lab note: measured melting point of COc1cc(COc2nn(C)cc2/C=C/c2cscn2)ccc1OCc1nc(-c2ccco2)oc1C [Example 167 (E form)] was 134 to 135 °C

Record CCc1nc(/C=C/c2cn(-c3ccccc3)nc2OCc2ccc(OCc3nc(/C=C/C(=O)O)oc3C)c(OC)c2)cs1 [Example 323] . Reported melting point: 125 to 126 °C

molecule CCc1nc(/C=C\c2cn(-c3ccccc3)nc2OCc2ccc(OCc3csc(N4CCCCC4)n3)c(OC)c2)cs1 [Example 193 (Z form)] , melting point observed: 93 to 94 °C

Looking up COc1cc(COc2nn(C)cc2C(=O)N(C)OC)ccc1OCc1nc(-c2ccccc2)oc1C [Example 269] , I see its melting point listed as 138 to 139 °C

For this molecule ( COc1cc(COc2nn(-c3ccccc3)cc2/C=C/C#N)ccc1OCc1nc(-c2ccco2)oc1C [Example 95] ), measured melting point is 177 to 178 °C

// CCOC(=O)c1cn(Cc2ccccc2)nc1OCc1ccc(OCc2nc(-c3ccco3)oc2C)c(Cl)c1 [Example 35] : melting point value = 153 to 154 °C

Summary for this molecule, CCOC(=O)c1cn(C)nc1OCc1ccc(OCc2nc(-c3ccccc3)oc2C)c(OC)c1 [Example 264] : melting point is 134 to 135 °C

The measured melting point associated with COc1cc(COc2nn(-c3ccccc3)cc2CC#N)ccc1OCc1nc(-c2ccccc2)oc1C [Example 283] reads 137 to 138 °C

* * *

- target.entity: human PPARγ1 (Homo sapiens)
- Construct: expressed in transfected cells; host or cells: CHO-K1 cells stably transfected with pVgRXR2-hPPARγ and reporter plasmid pGL3-4ERPP-TK neo
- Sequence (P37231 29-505): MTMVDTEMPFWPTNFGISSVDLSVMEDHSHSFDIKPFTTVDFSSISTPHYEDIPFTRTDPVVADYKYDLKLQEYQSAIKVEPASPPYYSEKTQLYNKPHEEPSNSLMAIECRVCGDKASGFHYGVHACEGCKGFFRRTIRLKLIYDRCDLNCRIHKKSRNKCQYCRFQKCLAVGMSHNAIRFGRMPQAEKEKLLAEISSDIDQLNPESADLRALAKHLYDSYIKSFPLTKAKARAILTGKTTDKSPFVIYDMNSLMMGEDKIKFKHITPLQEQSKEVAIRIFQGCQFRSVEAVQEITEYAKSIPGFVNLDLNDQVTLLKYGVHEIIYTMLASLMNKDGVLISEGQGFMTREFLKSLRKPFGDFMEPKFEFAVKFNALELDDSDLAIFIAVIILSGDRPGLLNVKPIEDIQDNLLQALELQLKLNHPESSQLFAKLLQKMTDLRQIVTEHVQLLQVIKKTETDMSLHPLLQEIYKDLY
- Sequence (P19793 whole entry partner): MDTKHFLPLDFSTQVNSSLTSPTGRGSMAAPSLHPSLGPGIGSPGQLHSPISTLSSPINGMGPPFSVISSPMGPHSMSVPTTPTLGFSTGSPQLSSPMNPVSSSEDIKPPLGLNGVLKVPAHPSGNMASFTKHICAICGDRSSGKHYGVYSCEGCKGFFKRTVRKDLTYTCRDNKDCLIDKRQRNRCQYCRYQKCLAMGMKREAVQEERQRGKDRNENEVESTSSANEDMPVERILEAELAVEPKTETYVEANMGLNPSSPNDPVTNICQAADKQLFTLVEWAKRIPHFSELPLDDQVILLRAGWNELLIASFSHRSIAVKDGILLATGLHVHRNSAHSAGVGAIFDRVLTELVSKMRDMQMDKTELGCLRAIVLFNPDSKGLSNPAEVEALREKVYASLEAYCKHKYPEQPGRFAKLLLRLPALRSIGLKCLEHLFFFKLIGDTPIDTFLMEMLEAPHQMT
- assay.overview: Human PPARγ1 antagonist assay (luciferase reporter in PPARγ:RXRα:4ERPP/CHO-K1 cells)
- Assay type: cell-based
- protocol.conditions: test compound 10^−6 M, 10 nM compound A as stimulant, luciferase activity, 24 hrs, read-out: Inhibitory rate (%)
- Experimental: PPARγ:RXRα:4ERPP/CHO-K1 cells (obtained in Reference Example 5a) cultured in Ham's F-12 medium (GIBCO, Inc.) supplemented with 10% fetal bovine serum (TRACE SCIENTIFIC, Ltd.) were seeded in a well of a 96 well white plate at 2×10^4 cells/well and cultured under 37° C. 5% CO2 conditions for 24 hrs. […] After stirring, luciferase activity was measured using 1420 ARVO Multilabel Counter (Wallac, Inc.). […]
measurement.type: inhibition at 1 µM (%)
Reply numerically in %, unit not repeated.

Record COc1cc(COc2nn(-c3ccccc3)cc2/C=C/c2csc(C)n2)ccc1OCc1nc(-c2ccc(CC(=O)O)cc2)oc1C [Example 357] . Reported inhibition at 1 µM: 103

molecule CCOP(=O)(/C=C/c1cn(-c2ccccc2)nc1OCc1ccc(OCc2nc(-c3ccco3)oc2C)c(OC)c1)OCC [Example 116 (E form)] , inhibition at 1 µM observed: 97

Item: CCOP(=O)(CCc1cn(-c2ccccc2)nc1OCc1ccc(OCc2nc(-c3ccco3)oc2C)c(OC)c1)OCC [Example 100] | inhibition at 1 µM: 74

Item: COc1cc(COc2nn(-c3ccccc3)cc2/C=C/c2coc(C(C)(C)C)n2)ccc1OCc1nc(-c2ccc(CC(=O)O)cc2)oc1C [Example 371] | inhibition at 1 µM: 114

Record summary for CCOC(=O)/C=C/c1cn(-c2ccccc2)nc1OCc1ccc(OCc2nc(-c3ccccc3)oc2C)c(OC)c1 [Example 284] : reported inhibition at 1 µM = 107

Measured inhibition at 1 µM of COc1cc(COc2nn(-c3ccccc3)cc2/C=C/c2csc(C(C)(C)C)n2)ccc1OCc1nc(-c2ccc(CC(=O)O)cc2)oc1C [Example 359] : 111

Consider CCc1nc(/C=C/c2cn(-c3ccccc3)nc2OCc2ccc(OCc3nc(-c4cccc(C(=O)O)c4)oc3C)c(OC)c2)co1 [Example 307] . Its measured inhibition at 1 µM is 108
